These entries and their values trace back to patent US12595226B2.

This listing pairs compounds with measured Approx. Percent Total Dose of Parent Lipid Remaining at 24 h.
assay: Residual lipid levels in the liver of mice after LNP administration; assay type: in vivo, CD-1 mice; conditions: calculation assumes a 25 g mouse with a 1.5 g liver, >95% equals very slowly metabolism of the lipid
QUANTITY KIND: Approx. Percent Total Dose of Parent Lipid Remaining at 24 h

• CCCCCCCCC(CCCCCCCC)OC(=O)CCCCCCCN(CCO)CCCCCCOC(=O)OCCC(CCCCCC)CCCCCC = 48%
• CCCCCCCCCOC(=O)OCCCCCCN(CCO)CCCCCCCC(=O)OC(CCCCCCCC)CCCCCCCC = 2%
• CCCCCCCCC(CCCCCCCC)OC(=O)CCCCCCCN(CCCCCCOC(=O)OCCC(CCCCC)CCCCC)CCCNc1c(NC)c(=O)c1=O = >95%
• CCCCCCCCC(CCCCCCCC)OC(=O)CCCCCCCN(CCCCCCOC(=O)OCCC(CCCCCC)CCCCCC)CCCNc1c(NC)c(=O)c1=O = >95%
• CCCCCCCCC(CCCCCCCC)OC(=O)CCCCCCCN(CCO)CCCCCCOC(=O)OCCC(CCCCC)CCCCC = 51%
